Assay: XTT cytotoxicity assay on uninfected Hep2 cells
Assay type: cell-based
Conditions: human; Table 1; uninfected Hep2 cells, 48 hours; read-out: XTT (CC50)
metric: CC50 at 48 h

IN: Give reported CC50 at 48 h value for `OCCN(CCO)CCNCc1nc2cccnc2n1Cc1nc2ccccc2[nH]1`
OUT: ≥ 100 µM
